I'd appreciate it if you could supply TGI values for the items below.
- Test system: HCT-116 colon
- protocol-text: NCI tumour cell line growth inhibition, 48 h

# input compound: CCC(CO)Nc1nc(NCc2ccccc2O)c2ncn(C(C)C)c2n1 (stereo not given) ; wanted: its TGI
> 100 µM

Moving on to Cc1cc2nc(CCC(=O)O)c(=O)[nH]c2cc1C
> 100 µM

Same question, C=CC[N+]12CN3CN(CN(C3)C1)C2 this time
58.2 µM

# repeat for O=S1CCS(=O)CCS(=O)CC1 (stereo not given)
> 100 µM

// repeat for CCCCCCCCCCCCCC(=O)CC(=O)c1c(O)cccc1O and report
> 100 µM

Data origin, for the record: PubChem BioAssay (NCI)
